Where do these numbers come from? They come from ChEMBL document CHEMBL6078647.

Listed below: Activity values for each entry.
- Experiment Description: Fluorescence property of compound in HEPES buffer assessed as quantum yield
- Type: physicochemical
Square brackets hold non-standard residues; d marks the D form. Peptide text beside a SMILES is read from it. * marks the point of attachment. ξ: configuration not given here. X1 = C[N+]1=C(/C=C/C=C2\N(CCCCCC(=O)*)c3ccccc3C2(C)C)C(C)(C)c2ccccc21; PEG2 = NCCOCCOCCC(=O)O; ξD = NC(CC(=O)O)C(=O)O
Give the figure by itself; no unit, no explanation.

CC[C@H](C)[C@H](NC(=O)[C@@H](NC(=O)C(CC(=O)O)NC(=O)[C@@H]1CCCN1C(=O)[C@H](Cc1c[nH]cn1)NC(=O)[C@H](Cc1ccccc1)NC(=O)[C@H](Cc1ccc(O)cc1)NC(=O)CCOCCOCCNC(=O)CCCCCN1/C(=C\C=C\C2=[N+](C)c3ccccc3C2(C)C)C(C)(C)c2ccccc21)C(C)C)C(=O)N[C@@H](CCCNC(=N)N)C(=O)O (some centres not stated) ({X1-PEG2}-YFHP[ξD]VIR-OH)	0.064

Query CC[C@H](C)[C@H](NC(=O)[C@H](Cc1ccc(O)cc1)NC(=O)[C@@H](NC(=O)[C@H](CCCNC(=N)N)NC(=O)CN(C)C(=O)CCCCCN1/C(=C\C=C\C2=[N+](C)c3ccccc3C2(C)C)C(C)(C)c2ccccc21)C(C)C)C(=O)N[C@@H](Cc1c[nH]cn1)C(=O)N1CCC[C@H]1C(=O)N[C@@H](C)C(=O)O yields Activity of 0.076

* * *

- Experiment Description: Fluorescence property of compound in HEPES buffer assessed as quantum yield
- Assay type: physicochemical
Peptide text beside a SMILES is read from it. * marks the point of attachment. X1 = C[N+]1=C(/C=C/C=C2\N(CCCCCC(=O)*)c3ccccc3C2(C)C)C(C)(C)c2ccccc21
Label scheme for Activity: lower than 0.08 is NOT MET, 0.08 and above is MET.

CC[C@H](C)[C@H](NC(=O)[C@H](Cc1ccc(O)cc1)NC(=O)[C@@H](NC(=O)[C@H](CCCNC(=N)N)NC(=O)[C@H](CC(=O)O)NC(=O)CCOCCOCCNC(=O)CCCCCN1/C(=C\C=C\C2=[N+](C)c3ccccc3C2(C)C)C(C)(C)c2ccccc21)C(C)C)C(=O)N[C@@H](Cc1c[nH]cn1)C(=O)N1CCC[C@H]1C(=O)N[C@@H](Cc1ccccc1)C(=O)O	NOT MET
CC[C@H](C)[C@H](NC(=O)[C@@H](NC(=O)[C@H](CC(=O)O)NC(=O)[C@@H]1CCCN1C(=O)[C@H](Cc1c[nH]cn1)NC(=O)[C@H](Cc1ccccc1)NC(=O)[C@H](Cc1ccc(O)cc1)NC(=O)CCCCCN1/C(=C\C=C\C2=[N+](C)c3ccccc3C2(C)C)C(C)(C)c2ccccc21)C(C)C)C(=O)N[C@@H](CCCNC(=N)N)C(=O)O (X1-YFHPDVIR-OH)	MET
CC[C@H](C)[C@H](NC(=O)[C@H](Cc1ccc(O)cc1)NC(=O)[C@@H](NC(=O)[C@H](CCCNC(=N)N)NC(=O)CN(C)C(=O)CCOCCOCCNC(=O)CCCCCN1/C(=C\C=C\C2=[N+](C)c3ccccc3C2(C)C)C(C)(C)c2ccccc21)C(C)C)C(=O)N[C@@H](Cc1c[nH]cn1)C(=O)N1CCC[C@H]1C(=O)N[C@@H](C)C(=O)O	NOT MET

As a next step, examine the molecule that follows.
Q) Could you verify whether the entry CCCCc1nc(Cl)c(C(=O)NCCOCCOCCNC(=O)CCCCCN2/C(=C/C=C/C3=[N+](C)c4ccccc4C3(C)C)C(C)(C)c3ccccc32)n1Cc1ccc(-c2ccccc2-c2nn[nH]n2)cc1.F[B-](F)(F)F shows Activity of no less than 0.08?
A) MET
